# testDetails: Ulcerogenic activity in rats
# recordedConditions: rat, in vivo, po
propertyName: TD50 at 5 h

                                   molecule       result
0  COc1ccc(-c2nc(-c3ccccc3F)[nH]c2-c2ccc(OC)cc2)cc1    590 mg/kg
1  COc1ccc(-c2nc(-c3cc(F)cc(F)c3)[nH]c2-c2ccc(OC)cc2)cc1    780 mg/kg
2  COc1ccc(-c2nc(-c3cccc(F)c3)[nH]c2-c2ccc(OC)cc2)cc1    870 mg/kg
3  COc1ccc(-c2nc(-c3c(F)cccc3F)[nH]c2-c2ccc(OC)cc2)cc1  > 300 mg/kg
4  COc1ccc(-c2nc(-c3cccc(F)c3F)[nH]c2-c2ccc(OC)cc2)cc1    800 mg/kg
5  COc1ccc(-c2nc(C(F)(F)F)[nH]c2-c2ccc(OC)cc2)cc1 [Compound 11, reference compound]    450 mg/kg
6  COc1ccc(-c2nc(-c3ccc(F)cc3)[nH]c2-c2ccc(OC)cc2)cc1    360 mg/kg
7  COc1ccc(-c2nc(-c3cc(F)ccc3F)[nH]c2-c2ccc(OC)cc2)cc1   1000 mg/kg
8  COc1ccc(-c2nc(-c3ccc(F)cc3F)[nH]c2-c2ccc(OC)cc2)cc1  > 300 mg/kg

---

# System: rats
# testDetails: Randall-Selitto test in rats (analgesia-meter, brewer's yeast paw), analgesic activity
# Assay type: in vivo
# recordedConditions: Rattus norvegicus, po; rats, by gavage 2 hours after brewer's yeast injection into the paw; read-out: Analgesic ED50 Analgesia-meter
Reported ED50 values for the following molecules.
propertyName: ED50 (mg/kg)

>>> df
                                   molecule  unittag  quantitativereadout
0  COc1ccc(-c2nc(-c3cccc(F)c3)[nH]c2-c2ccc(OC)cc2)cc1 [Compound 3]    mg/kg                 0.25
1  COc1ccc(-c2nc(-c3cc(F)cc(F)c3)[nH]c2-c2ccc(OC)cc2)cc1 [Compound 10]    mg/kg                 0.45
2  COc1ccc(-c2nc(-c3cc(F)ccc3F)[nH]c2-c2ccc(OC)cc2)cc1 [Compound 7]    mg/kg                 0.55
3  COc1ccc2cc([C@H](C)C(=O)O)ccc2c1 [Compound 14, Naproxen, reference compound]    mg/kg                  1.6
4  COc1ccc(-c2nc(-c3ccccc3F)[nH]c2-c2ccc(OC)cc2)cc1 [Compound 2]    mg/kg                  0.3
5  COc1ccc(-c2nc(-c3c(F)cccc3F)[nH]c2-c2ccc(OC)cc2)cc1 [Compound 8]    mg/kg                 0.55
6  COc1ccc(-c2nc(-c3cccc(F)c3F)[nH]c2-c2ccc(OC)cc2)cc1 [Compound 5]    mg/kg                 0.55
7  COc1ccc(-c2nc(-c3ccc(F)cc3)[nH]c2-c2ccc(OC)cc2)cc1 [Compound 4]    mg/kg                  0.3
8  COc1ccc(-c2nc(-c3ccc(F)cc3F)[nH]c2-c2ccc(OC)cc2)cc1 [Compound 6]    mg/kg                  0.8

---

# Test system: mice
# testDetails: Writhing test in mice (acetic acid induced writhing), analgesic activity
# Type: in vivo
# recordedConditions: Mus musculus, po, 20 min; mice, by gavage ½ hour prior to intraperitoneal acetic acid; writhing movements in 20 minutes; read-out: Analgesic ED50 Writhing test
Let's look at some compounds and their measured ED50.
propertyName: ED50 (mg/kg)

>>> df
                                    compound  modifiersign  quantitativereadout
 0  COc1ccc(-c2nc(-c3ccccc3F)[nH]c2-c2ccc(OC)cc2)cc1             =                   15
 1  COc1ccc(-c2nc(-c3c(F)cccc3F)[nH]c2-c2ccc(OC)cc2)cc1             =                  6.8
 2  COc1ccc(-c2nc(-c3cccc(F)c3F)[nH]c2-c2ccc(OC)cc2)cc1             =                  4.6
 3  COc1ccc(-c2nc(-c3cccc(F)c3)[nH]c2-c2ccc(OC)cc2)cc1             =                  3.2
 4  COc1ccc(-c2nc(-c3cc(F)ccc3F)[nH]c2-c2ccc(OC)cc2)cc1             =                   16
 5  COc1ccc(-c2nc(-c3ccc(F)cc3)[nH]c2-c2ccc(OC)cc2)cc1             =                    5
 6  COc1ccc(-c2nc(C(C)C)[nH]c2-c2ccc(OC)cc2)cc1 [Compound 12, reference compound]             =                  200
 7  COc1ccc(-c2nc(C(F)(F)F)[nH]c2-c2ccc(OC)cc2)cc1 [Compound 11, reference compound]             =                   75
 8  COc1ccc(-c2nc(-c3cc(F)cc(F)c3)[nH]c2-c2ccc(OC)cc2)cc1             =                   10
 9  COc1ccc(-c2nc(-c3ccc(F)cc3)n(CCC(=O)O)c2-c2ccc(OC)cc2)cc1 [Compound 1, reference compound]             >                  200
10  COc1ccc(-c2nc(-c3ccc(F)cc3F)[nH]c2-c2ccc(OC)cc2)cc1             =                    4
11  COc1ccc(-c2nc(-c3ccc(F)c(F)c3)[nH]c2-c2ccc(OC)cc2)cc1             =                  1.9

---

# targetOfAssay: PG-synthetase
# testDetails: Prostaglandin-synthetase inhibition test
# Type: biochemical
# recordedConditions: AA = Arachidonic acid
# maps each entry to its Inhibition of PG-synthetase IC50
propertyName: Inhibition of PG-synthetase IC50

>>> df
                                   molecule            result
0  COc1ccc(-c2nc(-c3ccc(F)cc3F)[nH]c2-c2ccc(OC)cc2)cc1  0,27 µg/10 µg AA
1  COc1ccc(-c2nc(-c3c(F)cccc3F)[nH]c2-c2ccc(OC)cc2)cc1  0,13 µg/10 µg AA
2  COc1ccc(-c2nc(-c3cccc(F)c3F)[nH]c2-c2ccc(OC)cc2)cc1  0,21 µg/10 µg AA
3  COc1ccc2cc([C@H](C)C(=O)O)ccc2c1 [Compound 14, Naproxen, reference compound]  0,49 µg/10 µg AA
4  COc1ccc(-c2nc(-c3ccc(F)cc3)[nH]c2-c2ccc(OC)cc2)cc1  0,18 µg/10 µg AA
5  COc1ccc2c(c1)c(CC(=O)O)c(C)n2C(=O)c1ccc(Cl)cc1 [Compound 13, Indomethacin, reference compound]  0,65 µg/10 µg AA
6  COc1ccc(-c2nc(-c3cc(F)ccc3F)[nH]c2-c2ccc(OC)cc2)cc1  1,71 µg/10 µg AA
7  CC(=O)Oc1ccccc1C(=O)O [Compound 15, Acetyl salicylic acid, reference compound]  7,61 µg/10 µg AA

---

# testDetails: Ulcerogenic activity in rats
# recordedConditions: rat, in vivo, po; rats, by gavage, stomachs examined 5 hours after administration; read-out: Ulcerogenic activity ED50
A collection of molecules and their measured TD50 at 5 h
propertyName: TD50 at 5 h (mg/kg)

>>> df
                                   molecule  unittag  quantitativereadout
0  COc1ccc2cc([C@H](C)C(=O)O)ccc2c1 [Compound 14, Naproxen, reference compound]    mg/kg                 19.5
1  CC(=O)Oc1ccccc1C(=O)O [Compound 15, Acetyl salicylic acid, reference compound]    mg/kg                  340
2  COc1ccc2c(c1)c(CC(=O)O)c(C)n2C(=O)c1ccc(Cl)cc1 [Compound 13, Indomethacin, reference compound]    mg/kg                  9.7

---

Measured LD50 at 168 h, listed per entry.
# testDetails: in vivo
# Assay type: in vivo
# recordedConditions: mouse, in vivo, po; mice, by gavage, observation period 168 hours; read-out: Acute toxicity LD50
propertyName: LD50 at 168 h (mg/kg)

                                   molecule   propertyname  modifiersign  quantitativereadout
0  CC(=O)Oc1ccccc1C(=O)O [Compound 15, Acetyl salicylic acid, reference compound]  LD50 at 168 h             =                 1700
1  COc1ccc(-c2nc(-c3ccc(F)cc3)n(CCC(=O)O)c2-c2ccc(OC)cc2)cc1 [Compound 1, reference compound]  LD50 at 168 h             >                 2000
2  COc1ccc2c(c1)c(CC(=O)O)c(C)n2C(=O)c1ccc(Cl)cc1 [Compound 13, Indomethacin, reference compound]  LD50 at 168 h             =                   21
3  COc1ccc(-c2nc(-c3ccc(F)c(F)c3)[nH]c2-c2ccc(OC)cc2)cc1 [Compound 9]  LD50 at 168 h             >                 2000
4  COc1ccc(-c2nc(C(C)C)[nH]c2-c2ccc(OC)cc2)cc1 [Compound 12, reference compound]  LD50 at 168 h             >                 2000
